system: breinlia booliati; assay: Time taken for In vitro anti-filarial activity to immobilize breinlia booliati (adult worms); assay type: functional
QUANTITY NAME: TIME
Give the figure together with its unit, number first.

Past entries and their recorded results:
CHEM SMILES | TIME
CCN(Cc1cc(Nc2ccnc3cc(Cl)ccc23)ccc1O)C(=O)N1CCN(C)CC1 | 3 h
COc1ccc(Nc2ccnc3cc(Cl)ccc23)cc1CNC(=O)N1CCN(C)CC1 | 5 h
CCN(CC)C(=O)N1CCN(C)CC1 | 2 h

# TIME of CCN(CC)C(=O)NCc1cc(Nc2ccnc3cc(Cl)ccc23)ccc1OC = 8 h

The molecule listed as CN1CCN(C(=O)NCc2cc(Nc3ccnc4cc(Cl)ccc34)ccc2O)CC1 has a reported TIME of 5 h

Recorded result, CCN(CC)C(=O)N(CC)Cc1cc(Nc2ccnc3cc(Cl)ccc23)ccc1OC , TIME: 8 h

The reported TIME of the molecule CCN(CC)C(=O)N1CCN(Cc2cc(Nc3ccnc4cc(Cl)ccc34)ccc2OC)CC1 was 3 h

For reference, reported TIME for CCN(CC)C(=O)NCc1cc(Nc2ccnc3cc(Cl)ccc23)ccc1O stands at 8 h

get_value(item= CCN(CC)C(=O)N1CCN(Cc2cc(Nc3ccnc4cc(Cl)ccc34)ccc2O)CC1 , readout=TIME) returns 3 h

Input CCN(CC)C(=O)N(CC)Cc1cc(Nc2ccnc3cc(Cl)ccc23)ccc1O . Output TIME: 8 h

The reported value for CCN(CC)Cc1cc(Nc2ccnc3cc(Cl)ccc23)ccc1O.Cl in terms of TIME is 3 h

Field TIME (entry CCN(Cc1cc(Nc2ccnc3cc(Cl)ccc23)ccc1OC)C(=O)N1CCN(C)CC1 ) reads 3 h

----------
In this section, each of the molecules is paired with its reported TIME.
system: breinlia booliati; assay: Time taken for In vitro anti-filarial activity to immobilize breinlia booliati (Microfilaria); type: functional
Express it in h; write the number only.

MOLECULE | TIME [h]
CCN(Cc1cc(Nc2ccnc3cc(Cl)ccc23)ccc1O)C(=O)N1CCN(C)CC1 | 3
CCN(CC)C(=O)N1CCN(Cc2cc(Nc3ccnc4cc(Cl)ccc34)ccc2O)CC1 | 6
CCN(CC)C(=O)NCc1cc(Nc2ccnc3cc(Cl)ccc23)ccc1OC | 8
CCN(CC)C(=O)N(CC)Cc1cc(Nc2ccnc3cc(Cl)ccc23)ccc1OC | 8
CCN(CC)C(=O)N1CCN(C)CC1 [DIETHYLCARBAMAZINE] | 4
CCN(CC)C(=O)NCc1cc(Nc2ccnc3cc(Cl)ccc23)ccc1O | 8
CN1CCN(C(=O)NCc2cc(Nc3ccnc4cc(Cl)ccc34)ccc2O)CC1 | 7
CCN(CC)C(=O)N1CCN(Cc2cc(Nc3ccnc4cc(Cl)ccc34)ccc2OC)CC1 | 6
CCN(Cc1cc(Nc2ccnc3cc(Cl)ccc23)ccc1OC)C(=O)N1CCN(C)CC1 | 3
COc1ccc(Nc2ccnc3cc(Cl)ccc23)cc1CNC(=O)N1CCN(C)CC1 | 7

The molecule CCN(CC)Cc1cc(Nc2ccnc3cc(Cl)ccc23)ccc1O.Cl , when measured on breinlia booliati, yielded TIME of 3

Hey, breinlia booliati data for CCN(CC)C(=O)N(CC)Cc1cc(Nc2ccnc3cc(Cl)ccc23)ccc1O : TIME came out at 8

----------
The reader will find reported LD app values listed item by item below.
species on record: Mus musculus; experiment: Lethal dose that killed mice in 48 hr; assay type: toxicity, organism-based; settings: in vivo
Give the quantity in mM/kg, number only.

CHEM SMILES | MEASURED NUMBER
CCN(CC)C(=O)N1CCN(Cc2cc(Nc3ccnc4cc(Cl)ccc34)ccc2O)CC1 | 0.37

The compound listed as COc1ccc(Nc2ccnc3cc(Cl)ccc23)cc1CNC(=O)N1CCN(C)CC1 shows LD app equal to 0.68

The compound CCN(CC)C(=O)N1CCN(Cc2cc(Nc3ccnc4cc(Cl)ccc34)ccc2OC)CC1 showed LD app equal to 0.41

LD app in this record for CCN(CC)C(=O)N1CCN(C)CC1 : 1.34

Per the record, CCN(Cc1cc(Nc2ccnc3cc(Cl)ccc23)ccc1O)C(=O)N1CCN(C)CC1 has LD app of 0.76

Given item CCN(Cc1cc(Nc2ccnc3cc(Cl)ccc23)ccc1OC)C(=O)N1CCN(C)CC1 , the value recorded as its LD app is 0.63

LD app recorded for this compound, CN1CCN(C(=O)NCc2cc(Nc3ccnc4cc(Cl)ccc34)ccc2O)CC1 , is 0.66

// sample CCN(CC)Cc1cc(Nc2ccnc3cc(Cl)ccc23)ccc1O.Cl , its LD app was 0.32
